measurement-target: TRPM7 (Mus musculus)
Construct: expressed in transfected cells; host or cells: HEK-293 tSA (HEK-293T) cells, transient transfection with Lipofectamine 2000
assay-procedure: PI uptake cell death assay in TRPM7-expressing HEK-293 cells (type of assay from Example 1)
Type: cell-based, murine
experimental-parameters: 5 μM; Table Y, commercially available compounds
Procedure: The TRPM7 channel provides a pathway for mono- and divalent cations into the cell, and is unique in that it contains a functional C-terminal α-kinase domain. […] Alternatively, this activation can also be measured using radiolabelled Ca2+ (^45Ca^2+) as described previously by Sattler et al. (Sattler et al., 1998) and Aarts et al. (Aarts et al., 2003). […] Cell death, as assessed by PI uptake, was examined at the end of the 2 hour calcium uptake assay. […]
Hi! Just check whether Normalized ratio of PI uptake (5 μM) is below 0.2. Below gives MET, equal or above gives NOT MET.

Some solved cases for reference:
# molecule, measurement-target, classification
data = [
    ("CCCc1c(Cc2c(F)cccc2Cl)c(=O)oc2cc(O)ccc12 [RJF01538SC #14, reference compound]", "TRPM7 (Mus musculus)", "MET"),
    ("Cc1c(Cc2ccccc2)c(=O)oc2cc(O)c(Cl)cc12 [STOCK6S- 31467 #2, reference compound]", "TRPM7 (Mus musculus)", "NOT MET"),
    ("O=C(c1sc2ccccc2c1Cl)N(Cc1ccccc1)c1ccccc1 [MCC1879 #5, reference compound]", "TRPM7 (Mus musculus)", "MET"),
    ("Cc1c(Cc2ccccc2)c(=O)oc2cc(O)cc(O)c12 [STOCK1N- 70089 #1, reference compound]", "TRPM7 (Mus musculus)", "MET"),
    ("Cc1c(Cc2ccccc2)c(=O)oc2c(CN(C)C)c(O)ccc12 [STOCK1N- 36829 #3, reference compound]", "TRPM7 (Mus musculus)", "NOT MET"),
]

[Q] Record COc1ccc(-c2n[nH]cc2CN(C)Cc2cc3ccccc3s2)cc1F [Ambcb42783454 #13, reference compound] : is its Normalized ratio of PI uptake (5 μM) strictly below 0.2?
[A] NOT MET

[Q] Continue with O=C(NC1CCOc2ccccc21)c1cc2ccccc2[nH]1 (stereo not shown) [T6749380 #12, reference compound]
[A] MET

---

measurement-target: TRPM7 (Mus musculus)
Construct: expressed in transfected cells; host or cells: HEK-293 tSA (HEK-293T) cells, transient transfection with Lipofectamine 2000
assay-procedure: PI uptake cell death assay in TRPM7-expressing HEK-293 cells (type of assay from Example 1)
Format: cell-based, murine
experimental-parameters: 5 μM; Table Y, commercially available compounds
Measured Normalized ratio of PI uptake (5 μM) values are reported for all entries that follow.
Lab note: jot the number down without any unit.

Example results:
# molecule, Normalized ratio of PI uptake (5 μM)
measured = [
    ("CC1c2ccsc2CCN1C(=O)c1c(Cl)c2ccccc2n1C (stereo not shown) [T6857127 #7, reference compound]", 0),
    ("COc1ccc2cc(C(=O)N(C)Cc3ccccc3N3CCCC3)[nH]c2c1 [T6899266 #9, reference compound]", 0.029),
    ("Cc1c(Cc2ccc(F)cc2)c(=O)oc2cc(O)ccc12 [RJF01910SC #10, reference compound]", 0.465),
]

Next:
[Q] For the molecule shown here, Cc1c(Cc2c(Cl)cccc2Cl)c(=O)oc2cc(O)c(Cl)cc12 [RJF00028SC #11, reference compound] , give the reported Normalized ratio of PI uptake (5 μM).
[A] 0.233

---

measurement-target: TRPM7 (Mus musculus, UniProt Q923J1)
Construct: expressed in transfected cells; host or cells: HEK-293 tSA (HEK-293T) cells, transient transfection with Lipofectamine 2000
Sequence (Q923J1 whole entry): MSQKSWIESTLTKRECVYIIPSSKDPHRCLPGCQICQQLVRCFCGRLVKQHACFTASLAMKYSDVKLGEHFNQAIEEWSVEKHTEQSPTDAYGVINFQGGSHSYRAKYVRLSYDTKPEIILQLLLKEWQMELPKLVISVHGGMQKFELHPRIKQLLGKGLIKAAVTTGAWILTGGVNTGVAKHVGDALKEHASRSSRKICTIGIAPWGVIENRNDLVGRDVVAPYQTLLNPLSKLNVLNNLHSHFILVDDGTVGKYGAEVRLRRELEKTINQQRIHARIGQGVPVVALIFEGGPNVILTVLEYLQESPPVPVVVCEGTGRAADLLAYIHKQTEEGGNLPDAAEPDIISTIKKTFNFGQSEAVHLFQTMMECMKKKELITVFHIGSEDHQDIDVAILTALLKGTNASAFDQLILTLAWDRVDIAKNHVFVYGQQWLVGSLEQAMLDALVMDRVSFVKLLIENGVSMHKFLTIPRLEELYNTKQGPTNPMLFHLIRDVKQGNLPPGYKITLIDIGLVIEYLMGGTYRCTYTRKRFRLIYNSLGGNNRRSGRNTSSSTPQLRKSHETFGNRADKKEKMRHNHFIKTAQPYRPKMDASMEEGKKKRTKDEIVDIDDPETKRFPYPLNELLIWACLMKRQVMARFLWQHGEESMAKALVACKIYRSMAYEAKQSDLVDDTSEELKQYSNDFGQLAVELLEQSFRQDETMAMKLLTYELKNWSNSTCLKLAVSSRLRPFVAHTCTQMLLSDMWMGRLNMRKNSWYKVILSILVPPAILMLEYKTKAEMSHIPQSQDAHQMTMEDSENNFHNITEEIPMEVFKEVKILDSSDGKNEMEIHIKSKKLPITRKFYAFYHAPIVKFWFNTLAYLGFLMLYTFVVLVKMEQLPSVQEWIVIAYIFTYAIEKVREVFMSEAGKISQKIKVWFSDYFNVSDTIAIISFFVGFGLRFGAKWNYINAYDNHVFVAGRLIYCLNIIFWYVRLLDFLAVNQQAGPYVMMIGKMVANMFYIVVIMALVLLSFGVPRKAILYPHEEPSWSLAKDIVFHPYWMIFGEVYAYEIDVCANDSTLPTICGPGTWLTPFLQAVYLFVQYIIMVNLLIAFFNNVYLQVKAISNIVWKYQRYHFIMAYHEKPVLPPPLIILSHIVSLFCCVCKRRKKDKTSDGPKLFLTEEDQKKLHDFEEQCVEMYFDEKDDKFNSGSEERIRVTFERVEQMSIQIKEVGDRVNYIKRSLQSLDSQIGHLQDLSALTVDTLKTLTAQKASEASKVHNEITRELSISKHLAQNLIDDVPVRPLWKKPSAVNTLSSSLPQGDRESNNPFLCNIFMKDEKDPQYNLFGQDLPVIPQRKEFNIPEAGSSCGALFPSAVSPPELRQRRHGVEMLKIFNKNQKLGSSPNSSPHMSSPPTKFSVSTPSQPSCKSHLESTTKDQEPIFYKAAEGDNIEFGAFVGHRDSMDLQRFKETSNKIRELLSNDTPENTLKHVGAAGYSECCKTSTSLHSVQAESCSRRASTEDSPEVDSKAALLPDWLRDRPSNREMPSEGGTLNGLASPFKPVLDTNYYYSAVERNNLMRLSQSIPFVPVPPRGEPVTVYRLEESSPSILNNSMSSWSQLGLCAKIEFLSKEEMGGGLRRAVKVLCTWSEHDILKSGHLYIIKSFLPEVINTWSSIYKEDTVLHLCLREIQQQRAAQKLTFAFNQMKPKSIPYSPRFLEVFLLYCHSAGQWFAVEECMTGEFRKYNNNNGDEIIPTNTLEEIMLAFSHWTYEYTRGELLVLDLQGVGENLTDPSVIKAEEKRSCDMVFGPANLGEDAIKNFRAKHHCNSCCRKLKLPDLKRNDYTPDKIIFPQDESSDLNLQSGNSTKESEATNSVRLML
assay-procedure: PI uptake cell death assay in TRPM7-expressing HEK-293 cells (type of assay from Example 1)
Assay type: cell-based, murine
experimental-parameters: Table X
Binarize IC50 at 1 µM; below is Met, at or above is Not met.

# compound, classification
records = [
    ("Cc1ccc2c(c1)CCCN2C(=O)c1sc2cc(F)ccc2c1Cl [Compound 7]", "Not met"),
]

[Q] In plain terms, does O=C(NC1CCCc2ccccc21)c1sc2ccccc2c1Cl (centres unmarked) [Compound 97] come in under 1 µM for IC50?
[A] Not met

[Q] What about this compound? Cc1c(Cc2c(Cl)cccc2Cl)c(=O)[nH]c2cc(O)cc(O)c12 [Compound 137]
[A] Not met

[Q] Then what about the compound Fc1cccc2c1CCNC2c1sc2ccccc2c1Cl (centres unmarked) [Compound 123] ?
[A] Not met

[Q] Request: Cc1ccc2c(c1)CCNC2c1sc2ccccc2c1Cl (centres unmarked) [Compound 54]
[A] Not met

[Q] Next compound: Fc1ccc2c(c1)CCN=C2c1sc2ccccc2c1Cl [Compound 42]
[A] Not met

[Q] Also check CN1CCc2cc(F)ccc2C1c1sc2ccccc2c1Cl (centres unmarked) [Compound 44]
[A] Not met

---

measurement-target: TRPM7 (Mus musculus)
Construct: expressed in transfected cells; host or cells: HEK-293 tSA (HEK-293T) cells, transient transfection with Lipofectamine 2000
assay-procedure: PI uptake cell death assay in TRPM7-expressing HEK-293 cells (type of assay from Example 1)
Format: cell-based, murine
experimental-parameters: 10 μM; Table X; the lower the number, the more potent
# cutoff 0.06 applies to Normalized ratio of PI uptake (10 μM); >= gives Satisfied, < gives Not satisfied

# molecule, classification
measured = [
    ("Cc1cccc2sc(C3=NCCc4ccc(Cl)cc43)c(Cl)c12", "Satisfied"),
]

[Q] Could you verify whether the entry Cc1ccc2c(c1)CCNC2c1sc2ccccc2c1Cl (centres unmarked) shows Normalized ratio of PI uptake (10 μM) of no less than 0.06?
[A] Not satisfied

[Q] Then what about the molecule COc1ccc2sc(C3=NCCc4cc(OC)c(OC)cc43)c(Cl)c2c1 ?
[A] Not satisfied

[Q] Next up: COc1ccc(C)c(N(Cc2ccccn2)C(=O)c2sc3ccccc3c2Cl)c1
[A] Not satisfied

---

measurement-target: TRPM7 (Mus musculus, UniProt Q923J1)
Construct: expressed in transfected cells; host or cells: HEK-293 tSA (HEK-293T) cells, transient transfection with Lipofectamine 2000
assay-procedure: PI uptake cell death assay in TRPM7-expressing HEK-293 cells (type of assay from Example 1)
Assay type: cell-based, murine
experimental-parameters: 10 μM; Table X; the lower the number, the more potent
property: Normalized ratio of PI uptake (10 μM)
Just the number, please.

Some solved cases for reference:
# compound, reading
data = [
    ("COc1cc2c(cc1OC)C(c1sc3cc(OC)c(OC)cc3c1Cl)=NCC2 [Compound 120]", 0.066),
    ("Fc1ccc2c(c1)CCNC2c1sc2ccccc2c1Cl (stereo not drawn) [Compound 43]", 0.020),
    ("Clc1cccc2c1CCNC2c1sc2ccccc2c1Cl (stereo not drawn) [Compound 125]", 0.122),
    ("Cc1ccc(N(Cc2ccncc2)C(=O)c2sc3ccccc3c2Cl)c(C)c1 [Compound 98]", 0.067),
    ("Cc1ccc2c(c1)CCCN2C(=O)c1sc2cc(C(F)(F)F)ccc2c1Cl [Compound 46]", 0.137),
]

[Q] Find the recorded Normalized ratio of PI uptake (10 μM) belonging to COc1cc(OC)c2c(C)c(Cc3ccccc3)c(=O)[nH]c2c1 [Compound 56] and report it.
[A] 0.240

[Q] And for COc1cc2c(cc1OC)C(c1sc3cccc(C)c3c1Cl)NCC2 (stereo not drawn) [Compound 73] ?
[A] 0.000

[Q] Here is the next compound: Cc1ccc2c(c1)CCCN2C(=O)c1sc2cc(F)ccc2c1Cl [Compound 7]
[A] 0.067

[Q] What do you have for Cc1ccc2c(c1)CCCN2C(=O)c1sc2ccccc2c1Cl [Compound 2] ?
[A] 0.018

---

measurement-target: TRPM7 (Mus musculus)
Construct: expressed in transfected cells; host or cells: HEK-293 tSA (HEK-293T) cells, transient transfection with Lipofectamine 2000
assay-procedure: PI uptake cell death assay in TRPM7-expressing HEK-293 cells (type of assay from Example 1)
Format: cell-based, murine
experimental-parameters: Table Y, commercially available compounds
Values of IC50 strictly less than 3 µM map to condition met, and values of at least 3 µM map to condition not met.

[Q] Here's an entry: COc1ccccc1C(C)N(C)C(=O)c1cc2ccccc2s1 (stereo not shown) [T6681713 #6, reference compound] . Is its IC50 below 3 µM?
[A] condition not met

[Q] Same lookup for CCN(CC)Cc1c(O)ccc2c(C)c(Cc3ccccc3)c(=O)oc12 [STOCK4S- 10213 #1, reference compound] , please.
[A] condition not met

[Q] Same thing, different compound: Cc1c(Cc2ccccc2)c(=O)oc2c(CN(C)C)c(O)ccc12 [STOCK1N- 36829 #3, reference compound]
[A] condition not met

[Q] Follow-up item: Cc1c(Cc2c(Cl)cccc2Cl)c(=O)oc2cc(O)c(Cl)cc12 [RJF00028SC #11, reference compound]
[A] condition not met

[Q] Do the same for CC1c2ccsc2CCN1C(=O)c1[nH]c2ccccc2c1Cl (stereo not shown) [T6899791 #8, reference compound] please
[A] condition met

[Q] Then COc1ccc2cc(C(=O)N(C)Cc3ccccc3N3CCCC3)[nH]c2c1 [T6899266 #9, reference compound] ?
[A] condition met

[Q] And the next one, Cc1c(Cc2ccccc2)c(=O)oc2cc(O)cc(O)c12 [STOCK1N- 70089 #1, reference compound] ?
[A] condition not met
